Entry source: patent US20040265797A1

Measured % Inhibition at 2.5 uM by item
molecular target: T1, Soluble recombinant human urokinase receptor (suPAR) (human, UniProt Q03405 23-299, limits assumed, biotinylated in the plate assays (sites not given)); experiment: competition with phage displaying peptide 9 for soluble uPAR
T1 construct: Only called a soluble truncated form of the urokinase receptor; also called soluble uPAR; biotinylated suPAR
T1 sequence (Q03405 23-299 limits assumed): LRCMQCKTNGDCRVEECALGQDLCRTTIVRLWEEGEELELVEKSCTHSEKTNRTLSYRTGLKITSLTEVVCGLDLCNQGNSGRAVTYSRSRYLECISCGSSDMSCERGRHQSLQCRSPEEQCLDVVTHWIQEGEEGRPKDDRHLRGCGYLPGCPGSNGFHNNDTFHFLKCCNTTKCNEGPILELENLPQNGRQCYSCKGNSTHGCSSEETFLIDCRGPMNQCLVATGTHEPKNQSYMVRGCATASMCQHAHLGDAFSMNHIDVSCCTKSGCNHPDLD
Square brackets hold non-standard residues; d marks the D form. Ends that are not written are not given here.
Response body: numeric value in %, unit text excluded.

binder	result
AEFFKLGPNGYVYL[dH]SA-NH2 (N-terminus assumed; SMILES CC(C)C[C@H](NC(=O)[C@H](CCCCN)NC(=O)[C@H](Cc1ccccc1)NC(=O)[C@H](Cc1ccccc1)NC(=O)[C@H](CCC(=O)O)NC(=O)[C@H](C)N)C(=O)NCC(=O)N1CCC[C@H]1C(=O)N[C@@H](CC(N)=O)C(=O)NCC(=O)N[C@@H](Cc1ccc(O)cc1)C(=O)N[C@H](C(=O)N[C@@H](Cc1ccc(O)cc1)C(=O)N[C@@H](CC(C)C)C(=O)N[C@H](Cc1c[nH]cn1)C(=O)N[C@@H](CO)C(=O)N[C@@H](C)C(N)=O)C(C)C) [Analog 94]	36

Form field: reported % Inhibition at 2.5 uM of AEFFKLGPNGYVYLHSA-NH2 (also called analogs 62-64) [Peptide 9 (synthetic peptide of clone 9)]
59

Which % Inhibition at 2.5 uM value belongs to AEFFKLGP[dN]GYVYLHSA-NH2 (N-terminus assumed; SMILES CC(C)C[C@H](NC(=O)[C@H](CCCCN)NC(=O)[C@H](Cc1ccccc1)NC(=O)[C@H](Cc1ccccc1)NC(=O)[C@H](CCC(=O)O)NC(=O)[C@H](C)N)C(=O)NCC(=O)N1CCC[C@H]1C(=O)N[C@H](CC(N)=O)C(=O)NCC(=O)N[C@@H](Cc1ccc(O)cc1)C(=O)N[C@H](C(=O)N[C@@H](Cc1ccc(O)cc1)C(=O)N[C@@H](CC(C)C)C(=O)N[C@@H](Cc1c[nH]cn1)C(=O)N[C@@H](CO)C(=O)N[C@@H](C)C(N)=O)C(C)C) [Analog 89] ?
15
